These data points were gathered from patent US20220016254A1.

Molecular target: T1, human beta-Klotho (human, UniProt Q86Z14 1-1044)
T1 sequence (looked up): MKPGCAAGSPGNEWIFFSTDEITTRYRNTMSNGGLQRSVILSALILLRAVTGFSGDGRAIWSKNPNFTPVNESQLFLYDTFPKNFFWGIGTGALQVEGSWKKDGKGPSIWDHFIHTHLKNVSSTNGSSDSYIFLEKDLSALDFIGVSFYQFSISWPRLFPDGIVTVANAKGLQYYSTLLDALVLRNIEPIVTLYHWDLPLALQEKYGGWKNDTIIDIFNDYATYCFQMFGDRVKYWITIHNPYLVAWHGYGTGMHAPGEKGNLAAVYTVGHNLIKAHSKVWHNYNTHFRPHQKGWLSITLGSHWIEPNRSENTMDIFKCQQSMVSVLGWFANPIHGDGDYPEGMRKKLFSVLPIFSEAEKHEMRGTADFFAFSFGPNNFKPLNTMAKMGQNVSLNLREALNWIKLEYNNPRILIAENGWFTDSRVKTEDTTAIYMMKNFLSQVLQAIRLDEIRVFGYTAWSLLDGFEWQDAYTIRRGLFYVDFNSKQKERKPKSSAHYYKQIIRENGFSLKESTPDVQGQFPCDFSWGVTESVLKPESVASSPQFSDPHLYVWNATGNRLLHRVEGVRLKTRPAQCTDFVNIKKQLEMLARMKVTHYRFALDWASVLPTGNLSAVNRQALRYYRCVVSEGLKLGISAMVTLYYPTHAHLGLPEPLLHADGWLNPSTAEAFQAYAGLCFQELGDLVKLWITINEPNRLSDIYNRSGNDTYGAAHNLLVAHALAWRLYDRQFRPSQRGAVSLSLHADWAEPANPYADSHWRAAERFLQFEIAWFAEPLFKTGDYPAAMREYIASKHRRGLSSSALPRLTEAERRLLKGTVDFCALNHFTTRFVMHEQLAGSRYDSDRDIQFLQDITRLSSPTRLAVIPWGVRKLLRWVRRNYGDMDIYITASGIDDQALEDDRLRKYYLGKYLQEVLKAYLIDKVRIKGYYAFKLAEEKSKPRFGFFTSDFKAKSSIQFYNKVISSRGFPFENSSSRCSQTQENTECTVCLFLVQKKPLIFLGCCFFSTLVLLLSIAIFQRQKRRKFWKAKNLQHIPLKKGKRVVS
Assay: cell-based or functional assay
Exercise: for every item that follows, state its recorded FGF21 activity (EC50, nM); p-ERK levels.
Numbers only, in nM.

Native FGF21 (ligand) HPIPDSSPLLQFGGQVRQRYLYTDDAQQTEAHLEIREDGTVGGAADQSPESLLQLKALKPGVIQILGVKTSRFLCQRPDGALYGSLHFDPEACSFRELLLEDGYNVYQSEAHGLPLHLPGNKSPHRDPAPRGPARFLPLPGLPPALPEPPGILAPQPPDVGSSDPLSMVGPSQGRSPSYAS
10.6

Continue with the next binder.
Task: Return FGF21 activity (EC50, nM); p-ERK levels (reported value) for this binder: Compound 13 (ligand, Moiety A (HOOC-(CH2)16-CO-gGlu-2XADO) on 222K of fusion polypeptide) HGEGTFTSDVSSYLEEQAAREFIAWLVRGGGGAQPGAQPGAQPGAQPGAQPHPIPDSSPLLQFGGQVRQRYLYTDDAQQTEAHLEIREDGTVGGAADQSPESLLQLRALRPGVIQILGVRTSRFLCQRPDGALYGSLHFDPEACSFRELLLEDGYNVYQSEAHGLPLHLPGQRSPHRDPAPRGPARFLPLPGLPPALPEPPGILAPQPPDVGSSDPLSLVGKSQGRSPSYES
Output: 9.1
